Listed here: items and their measured % inhibition at 100 µM.
target: Thrombin, from Human Plasma, high activity (human, UniProt P00734 328-622); experiment: cell-based or functional assay
PROPERTY: % inhibition at 100 µM (%)

[[record]]
binder = "RCTKSDPPICF (HELM PEPTIDE1{R.C.T.K.S.D.P.P.I.C.F.[dP].P}$PEPTIDE1,PEPTIDE1,2:R3-10:R3|PEPTIDE1,PEPTIDE1,1:R1-13:R2$$$V2.0; SMILES CC[C@H](C)[C@@H]1NC(=O)[C@@H]2CCCN2C(=O)[C@@H]2CCCN2C(=O)[C@H](CC(=O)O)NC(=O)[C@H](CO)NC(=O)[C@H](CCCCN)NC(=O)[C@H]([C@@H](C)O)NC(=O)[C@@H]2CSSC[C@H](NC1=O)C(=O)N[C@@H](Cc1ccccc1)C(=O)N1CCC[C@@H]1C(=O)N1CCC[C@H]1C(=O)N[C@@H](CCCNC(=N)N)C(=O)N2) [Example 75]"
readout_value = 1.1

[[record]]
binder = "FCTKSDPPICD (HELM PEPTIDE1{F.C.T.K.S.D.P.P.I.C.D.[dP].P}$PEPTIDE1,PEPTIDE1,2:R3-10:R3|PEPTIDE1,PEPTIDE1,1:R1-13:R2$$$V2.0; SMILES CC[C@H](C)[C@@H]1NC(=O)[C@@H]2CCCN2C(=O)[C@@H]2CCCN2C(=O)[C@H](CC(=O)O)NC(=O)[C@H](CO)NC(=O)[C@H](CCCCN)NC(=O)[C@H]([C@@H](C)O)NC(=O)[C@@H]2CSSC[C@H](NC1=O)C(=O)N[C@@H](CC(=O)O)C(=O)N1CCC[C@@H]1C(=O)N1CCC[C@H]1C(=O)N[C@@H](Cc1ccccc1)C(=O)N2) [Example 2]"
readout_value = 9.2

